- Target: αvβ3 (vitronectin receptor) (Homo sapiens, UniProt P05106+P06756)
- Construct: Human placenta or human platelet αvβ3 (0.1-0.3 mg/mL) in buffer T
- Sequence (P06756 31-889 limits assumed): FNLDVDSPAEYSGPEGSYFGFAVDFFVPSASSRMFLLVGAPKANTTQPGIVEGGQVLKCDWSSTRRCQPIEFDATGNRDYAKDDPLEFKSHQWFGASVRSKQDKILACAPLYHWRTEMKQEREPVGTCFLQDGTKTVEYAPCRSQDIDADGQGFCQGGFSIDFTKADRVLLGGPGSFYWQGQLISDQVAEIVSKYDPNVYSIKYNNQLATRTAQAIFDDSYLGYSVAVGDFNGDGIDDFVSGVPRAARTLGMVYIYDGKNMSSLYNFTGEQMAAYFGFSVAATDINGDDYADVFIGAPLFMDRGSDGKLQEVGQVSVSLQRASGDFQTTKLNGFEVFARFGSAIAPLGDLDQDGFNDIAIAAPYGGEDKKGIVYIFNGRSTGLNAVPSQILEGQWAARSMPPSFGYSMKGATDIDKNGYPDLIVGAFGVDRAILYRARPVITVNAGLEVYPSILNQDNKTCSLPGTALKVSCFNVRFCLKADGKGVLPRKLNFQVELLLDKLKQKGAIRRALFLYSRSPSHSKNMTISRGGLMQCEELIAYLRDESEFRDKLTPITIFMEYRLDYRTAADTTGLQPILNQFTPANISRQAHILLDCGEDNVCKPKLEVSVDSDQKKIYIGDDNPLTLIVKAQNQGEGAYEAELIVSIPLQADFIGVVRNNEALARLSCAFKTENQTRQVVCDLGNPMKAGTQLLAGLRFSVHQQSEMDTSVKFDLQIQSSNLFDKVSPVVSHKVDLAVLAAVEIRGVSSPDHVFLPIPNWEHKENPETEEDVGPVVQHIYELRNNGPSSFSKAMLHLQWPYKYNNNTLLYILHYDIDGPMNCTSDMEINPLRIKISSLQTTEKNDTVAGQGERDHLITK
- Sequence (P06756 891-1048 partner limits assumed): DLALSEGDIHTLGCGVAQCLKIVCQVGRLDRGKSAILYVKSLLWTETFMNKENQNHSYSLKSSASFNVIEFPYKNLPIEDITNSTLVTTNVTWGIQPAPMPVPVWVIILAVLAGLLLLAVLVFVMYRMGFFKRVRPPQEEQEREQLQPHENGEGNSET
- Sequence (P05106 27-788): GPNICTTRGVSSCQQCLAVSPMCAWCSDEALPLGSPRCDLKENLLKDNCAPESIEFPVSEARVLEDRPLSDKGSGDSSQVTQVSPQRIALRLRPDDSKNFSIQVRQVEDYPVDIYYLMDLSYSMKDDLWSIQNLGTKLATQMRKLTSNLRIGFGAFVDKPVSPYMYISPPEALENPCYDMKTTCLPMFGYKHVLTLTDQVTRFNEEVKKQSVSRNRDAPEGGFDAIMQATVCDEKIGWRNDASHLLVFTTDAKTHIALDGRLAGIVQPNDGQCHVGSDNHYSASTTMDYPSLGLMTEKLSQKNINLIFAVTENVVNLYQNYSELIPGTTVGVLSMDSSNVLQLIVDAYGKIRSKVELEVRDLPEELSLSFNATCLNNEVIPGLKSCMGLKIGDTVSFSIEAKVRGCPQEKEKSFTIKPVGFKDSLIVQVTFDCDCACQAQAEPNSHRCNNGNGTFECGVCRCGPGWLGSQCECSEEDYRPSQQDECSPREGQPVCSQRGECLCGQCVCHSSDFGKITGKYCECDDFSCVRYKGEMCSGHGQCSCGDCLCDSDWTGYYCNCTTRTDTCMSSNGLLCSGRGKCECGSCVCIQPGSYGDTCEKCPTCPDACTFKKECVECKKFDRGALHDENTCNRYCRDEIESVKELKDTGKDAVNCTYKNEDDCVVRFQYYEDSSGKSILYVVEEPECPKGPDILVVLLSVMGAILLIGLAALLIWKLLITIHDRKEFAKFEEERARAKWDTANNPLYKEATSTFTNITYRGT
- Experiment: Solid-Phase [3H]-SK&F-107260 Binding to αvβ3
- Run Conditions: read-out: concentration at which the compound inhibits vitronectin binding to SK&F 107260

| Input Smiles | Target | IC50 |
| --- | --- | --- |
| O=C(O)C[C@@H]1Cc2ccc(OCCCNc3ccccn3)cc2CN(Cc2ccc(F)c(F)c2F)C1=O | αvβ3 (vitronectin receptor) (Homo sapiens, UniProt P05106+P06756) | ~3 nM |
